Let's look at some compounds and their measured inhibition at 10 µM.
Tested on: B16F10 (malignant melanoma)
test-name: Antiproliferative activity (CCK-8 cell viability), B16F10
Assay type: cell-based
condition: Mus musculus, B16-F10, Compound concentration: 10 μM, 72 h, read-out: Antiproliferative activity in cancerous cells, B16F10 (inhibition of cell growth)

Reference set (8 entries):
>>> experimental_result("CC1=C(CC(=O)O)c2cc(F)ccc2/C1=C\\c1ccc(COc2ccc(Cl)cc2)cc1Br")
"≥ 50%"
>>> experimental_result("COc1cc(Oc2ccc(/C=C3/C(C)=C(CC(=O)O)c4cc(F)ccc43)cc2)ccc1Cl")
"≥ 50%"
>>> experimental_result("CCc1ccc2c(c1)C(CC(=O)O)=C(C)/C2=C/c1ccc(COc2ccc(C(F)(F)F)cc2)cc1")
"≥ 50%"
>>> experimental_result("CCc1ccc(COCc2ccc(/C=C3/C(C)=C(CC(=O)O)c4cc(F)ccc43)cc2)cc1")
"< 30%"
>>> experimental_result("CC1=C(CC(=O)O)c2cc(Cl)ccc2/C1=C\\c1ccc(Oc2ccc(F)cc2)cc1")
"30 to 50%"
>>> experimental_result("O=C(O)CC1=C/C(=C/c2ccc(COc3ccccc3)cc2)c2ccc(F)cc21")
"≥ 50%"
>>> experimental_result("CC1=C(CC(=O)O)c2c(F)cccc2/C1=C\\c1ccc(Oc2ccc(F)cc2)cc1")
"≥ 50%"
>>> experimental_result("CC1=C(CC(=O)O)c2cc(F)ccc2/C1=C/c1ccc(CO)cc1")
"< 30%"

Quickly give me recorded inhibition at 10 µM for `CC1=C(CC(=O)O)c2cc(Br)ccc2/C1=C/c1ccc(Oc2ccc(F)cc2)cc1`
≥ 50%

Quickly give me recorded inhibition at 10 µM for `CCc1ccc2c(c1)C(CC(=O)O)=C(C)/C2=C/c1ccc(CCc2ccccc2)cc1`
≥ 50%

Quickly give me recorded inhibition at 10 µM for `CC1=C(CC(=O)O)c2cc(C)ccc2/C1=C\c1ccc(COc2ccccc2)cc1`
≥ 50%

Quickly give me recorded inhibition at 10 µM for `CC1=C(CC(=O)O)c2cc(F)ccc2/C1=C\c1ccc(OC2CCNCC2)cc1`
< 30%

Quickly give me recorded inhibition at 10 µM for `CC1=C(CC(=O)O)c2cc(F)ccc2/C1=C\c1ccc(Oc2ccc(F)c(Br)c2)cc1`
≥ 50%

Quickly give me recorded inhibition at 10 µM for `CC1=C(CC(=O)O)c2cc(Cl)ccc2/C1=C/c1ccc(Oc2ccc(F)cc2)cc1`
≥ 50%

Quickly give me recorded inhibition at 10 µM for `CC1=C(CC(=O)O)c2cc(F)ccc2/C1=C\c1ccc(CCCCc2ccc(F)cc2)cc1`
30 to 50%

Quickly give me recorded inhibition at 10 µM for `C/C(=C1/C=C(CC(=O)O)c2ccccc21)c1ccc(F)cc1`
< 30%

Quickly give me recorded inhibition at 10 µM for `CC1=C(CC(=O)O)c2cc(F)ccc2/C1=C/c1ccc(Oc2ccc(F)cc2F)cc1`
≥ 50%

Quickly give me recorded inhibition at 10 µM for `CC1=C(CC(=O)O)c2cc(F)ccc2/C1=C\c1ccc(Oc2ccc(Cl)cc2C)cc1`
≥ 50%

====

Let's look at some compounds and their measured inhibition at 10 µM.
Tested on: A549 (lung adenocarcinoma)
test-name: Antiproliferative activity (CCK-8 cell viability), A549
Assay type: cell-based
condition: Homo sapiens, Compound concentration: 10 μM, 72 h, read-out: Antiproliferative activity in cancerous cells, A549 (inhibition of cell growth)

Reference set (2 entries):
>>> experimental_result("CC1=C(CC(=O)O)c2cc(Br)ccc2/C1=C\\c1ccc(Oc2ccc(Cl)cc2)cc1")
"≥ 50%"
>>> experimental_result("COc1ccc(/C=C2/C(C)=C(CC(=O)O)c3cc(F)ccc32)cc1Cl")
"< 30%"

Quickly give me recorded inhibition at 10 µM for `O=C(O)CC1=C(Cc2ccc(Oc3ccc(F)cc3)cc2)/C(=C/c2cccc(C(F)(F)F)c2)c2ccc(F)cc21`
≥ 50%

Quickly give me recorded inhibition at 10 µM for `CCc1ccc2c(c1)/C(=C\c1ccc(COCc3ccc(F)cc3)cc1)C(C)=C2CC(=O)O`
≥ 50%

====

System: A549 (lung adenocarcinoma)
test-name: Antiproliferative activity (CCK-8 cell viability), A549
Assay type: cell-based
condition: Homo sapiens, Compound concentration: 10 μM, 72 h, read-out: Antiproliferative activity in cancerous cells, A549 (inhibition of cell growth)
property-label: inhibition at 10 µM

Reference set (3 entries):
>>> experimental_result("CC1=C(CC(=O)O)c2cc(F)ccc2/C1=C\\c1ccc(Cc2cc3ccccc3s2)cc1")
"≥ 50%"
>>> experimental_result("CC1=C(CC(=O)O)c2cc(Cl)ccc2/C1=C\\c1ccc(COCc2ccc(F)cc2)cc1")
"≥ 50%"
>>> experimental_result("COc1ccc2c(c1)C(CC(=O)O)=C(C)/C2=C/c1ccc(Oc2ccc(Cl)cc2)cc1")
"< 30%"

Given `CC(C)c1ccc(/C=C2/C(Cc3ccc(Oc4ccc(F)cc4)cc3)=C(CC(=O)O)c3cc(F)ccc32)cc1` , report its inhibition at 10 µM on A549 (lung adenocarcinoma).
≥ 50%

Given `CC1=C(CC(=O)O)c2cc(C)ccc2/C1=C\c1ccc(COc2ccc(C(F)(F)F)cc2)cc1` , report its inhibition at 10 µM on A549 (lung adenocarcinoma).
30 to 50%

Given `CC1=C(CC(=O)O)c2c(Cl)cc(Cl)cc2/C1=C\c1ccc(Oc2ccc(F)cc2)cc1` , report its inhibition at 10 µM on A549 (lung adenocarcinoma).
≥ 50%

Given `CC1=C(CC(=O)O)c2cc(F)ccc2/C1=C\c1ccc(Oc2ccc(O)c(Cl)c2)cc1` , report its inhibition at 10 µM on A549 (lung adenocarcinoma).
≥ 50%

Given `CC1=C(CC(=O)O)c2cc(F)ccc2/C1=C\c1ccc(CCCCc2ccc(F)cc2)cc1` , report its inhibition at 10 µM on A549 (lung adenocarcinoma).
≥ 50%

====

Let's look at some compounds and their measured inhibition at 10 µM.
Test system: MDA-MB-231 (breast cancer)
test-name: Antiproliferative activity (CCK-8 cell viability), MDA-MB-231
Type: cell-based
condition: Homo sapiens, Compound concentration: 10 μM, 72 h, read-out: Antiproliferative activity in cancerous cells, MDA-MB-231 (inhibition of cell growth)
Protocol: The antiproliferative activity of a compound was determined in the following cell lines: MDA-MB-231 (breast cancer), HepG2 (liver cancer), SW480 (colon cancer), B16F10 (malignant melanoma), A431 (epidermoid carcinoma), A549 (lung adenocarcinoma), and HeLa (cervical cancer). […] Briefly cells were seeded in a 96-well plate at a density of 2,000-5,000 cells/well. […] After incubation at 37° C. for 4 h, the absorbance value of each well was determined using a multi-well plate reader at 450 nm. […]

>>> experimental_result("O=C(O)CC1=C(Cc2ccc(Oc3ccc(F)cc3)cc2)/C(=C/c2ccc(F)cc2)c2ccc(F)cc21")
"≥ 50%"
>>> experimental_result("COc1ccc(/C=C2/C(C)=C(CC(=O)O)c3cc(F)ccc32)cc1Cl")
"30 to 50%"
>>> experimental_result("CC1=C(CC(=O)O)c2cc(Cl)c(Cl)cc2/C1=C\\c1ccc(Oc2ccc(F)cc2)cc1")
"≥ 50%"
>>> experimental_result("COc1ccc2c(c1)/C(=C\\c1cccc(COc3ccccc3)c1)C(C)=C2CC(=O)O")
"30 to 50%"
>>> experimental_result("O=C(O)CC1=C(Cc2ccc(Oc3ccc(F)cc3)cc2)/C(=C/c2ccc(Cc3ccc(F)cc3)cc2)c2ccc(F)cc21")
"≥ 50%"

Quickly give me recorded inhibition at 10 µM for `CCc1ccc2c(c1)C(CC(=O)O)=C(C)/C2=C/c1ccc(Oc2ccc(F)cc2)cc1`
≥ 50%

Quickly give me recorded inhibition at 10 µM for `CC1=C(CC(=O)O)c2cc(I)ccc2/C1=C\c1ccc(Oc2ccc(F)cc2)cc1`
≥ 50%

Quickly give me recorded inhibition at 10 µM for `CC1=C(CC(=O)O)c2cc(C)ccc2/C1=C\c1ccc(CCc2ccccc2)cc1`
< 30%

Quickly give me recorded inhibition at 10 µM for `CC1=C(CC(=O)O)c2c(F)ccc(F)c2/C1=C\c1ccc(C(C)C)cc1`
30 to 50%

====

System: A431 (epidermoid carcinoma)
test-name: Antiproliferative activity (CCK-8 cell viability), A431
Assay type: cell-based
condition: Homo sapiens, A-431, Compound concentration: 10 μM, 72 h, read-out: Antiproliferative activity in cancerous cells, A431 (inhibition of cell growth)
property-label: inhibition at 10 µM

Given CC1=C(CC(=O)O)c2c(F)ccc(F)c2/C1=C\c1ccc(C(C)C)cc1 [D4] , report its inhibition at 10 µM on A431 (epidermoid carcinoma).
< 30%

Given CC1=C(CC(=O)O)c2cc(F)ccc2/C1=C/c1ccc(Oc2ccc(Cl)c(Cl)c2)cc1 [E21] , report its inhibition at 10 µM on A431 (epidermoid carcinoma).
≥ 50%

Given CC1=C(CC(=O)O)c2cc(F)ccc2/C1=C\c1cccc(C(F)(F)c2ccccc2)c1 [C301] , report its inhibition at 10 µM on A431 (epidermoid carcinoma).
< 30%

Given CC1=C(CCOC(=O)n2ccnc2)c2cc(F)ccc2/C1=C\c1ccc(Oc2ccc(F)cc2)cc1 [A204] , report its inhibition at 10 µM on A431 (epidermoid carcinoma).
< 30%

Given CC1=C(CC(=O)O)c2cc(F)ccc2/C1=C\c1ccc(OC2CCNCC2)cc1 [C202] , report its inhibition at 10 µM on A431 (epidermoid carcinoma).
≥ 50%

Given CC1=C(CC(=O)O)c2cc(Cl)ccc2/C1=C\c1ccc(Oc2ccc(Cl)cc2)cc1 [C62] , report its inhibition at 10 µM on A431 (epidermoid carcinoma).
≥ 50%

Given CC1=C(CC(=O)O)c2c(Cl)cc(Cl)cc2/C1=C\c1ccc(Oc2ccc(F)cc2)cc1 [C87] , report its inhibition at 10 µM on A431 (epidermoid carcinoma).
≥ 50%

Given CCC1=C(CC(=O)O)c2cc(F)ccc2/C1=C\c1ccc(Oc2ccc(F)cc2)cc1 [C6] , report its inhibition at 10 µM on A431 (epidermoid carcinoma).
≥ 50%

Given CC1=C(CC(=O)O)c2cc(F)ccc2/C1=C\c1ccc(OCCc2ccccc2)cc1 [B30] , report its inhibition at 10 µM on A431 (epidermoid carcinoma).
≥ 50%
